- METHOD: gradient 5% acetonitrile 3 min, to 50% in 2 min, to 85% in 15 min, held 3 min, 100 µL/min
- CONDITION CONTEXT: column: Zorbax Extend-C18 2.1 x 50 mm; eluents: water / acetonitrile, 0.1% formic acid
ASSAY READOUT: RP-LC retention time (s)
Give just the number in s; leave the unit off.

Answered cases to consult:
SMILES INPUT	RECORDED NUMBER
CSc1ccc(NC(=O)N2CCN(c3ccc(C(F)(F)F)cn3)CC2)cc1	1010
CCOC(=O)C1CCN(C(=O)c2ccc(-c3csc(C4CC4)n3)cc2)CC1	961
COCCn1cc(C(=O)NCc2c(F)cccc2F)c2nn(-c3ccccc3)c(=O)c-2c1	809
CCc1ccc(-c2noc(Cn3cnc4c(cnn4-c4ccc(OC)cc4)c3=O)n2)cc1	1130

Just so you know, measured RP-LC retention time for Cc1cc(C)c(-c2nnc(NC(=O)c3ccccc3Br)s2)c(C)c1 came out at 988

====

- METHOD: gradient 5% acetonitrile 3 min, to 50% in 2 min, to 85% in 15 min, held 3 min, 100 µL/min
- CONDITION CONTEXT: column: Zorbax Extend-C18 2.1 x 50 mm; eluents: water / acetonitrile, 0.1% formic acid
// label = condition met if RP-LC retention time is not less than 800 s, otherwise condition not met

MOLECULE	ANSWER LABEL
O=c1ccn(-c2ccc(Cl)cc2)nc1-c1nc(-c2ccccc2Br)no1	condition met
CCCCS(=O)(=O)N1CCC(n2c(-c3ccc(OC)cc3)nc3cccnc32)C1 (centres undefined)	condition met
COc1ccc(-c2nc3cnccn3c2Nc2cccc(C(=O)O)c2)cc1	condition met
Cc1noc(C)c1S(=O)(=O)N1CCC(C(C)C(=O)N2CCN(C3CCCCC3)CC2)CC1 (centres undefined)	condition not met
CCOC(=O)c1ccc(NC(=O)c2cnc(-c3ccc(C)cc3)nc2-c2ccncc2)cc1	condition met
CCc1nn(CCO)c(CC)c1Oc1cc(C#N)cc(C#N)c1	condition met

Reported RP-LC retention time reaches at least 800 s for O=C(Cn1cccc(-c2nc(-c3ccc(F)cc3)no2)c1=O)NC1CCCCC1 ?
condition met

Does the molecule O=c1c2cc(-c3ccccc3)nn2ccn1Cc1noc(CN2CCCC2)n1 have recorded RP-LC retention time that is 800 s or more?
condition not met

Decide: is the reported value of RP-LC retention time for CCCCOC(=O)c1ccc(NC(=O)c2cnc3scc(C)n3c2=O)cc1 equal to or greater than 800 s?
condition met

Is RP-LC retention time at least 800 s? Consider Cc1ccc2oc(-c3nnc(C(=O)NCc4ccc(C)o4)o3)c(C)c2c1
condition met

Is RP-LC retention time at least 800 s? Consider O=C(Nc1ccc(CC(=O)N2CCOCC2)cc1)c1ccco1
condition not met

Form field: RP-LC retention time at least 800 s? Entry: CC(C)(C)c1noc(-c2ccnc(-n3cnc(C(=O)N4CCSCC4)c3)c2)n1
condition met

RP-LC retention time >= 800 s for COCc1cc(=O)n(CC(=O)Nc2ccccc2OC)c(N2CCOCC2)n1 ?
condition met

Identify whether the reported RP-LC retention time of the following molecule is 800 s or greater: CC(C)NC(=O)c1ccc(OCC2CCN(C(=O)Cc3ccc(F)cc3)CC2)cc1
condition met

Is reported RP-LC retention time greater than or equal to 800 s here: O=C(NCCC1=CCCCC1)C(=O)NCc1ccsc1
condition met

I'd appreciate it if you could say whether CCc1cccc(NC(=O)C2CCN(S(=O)(=O)c3ccc4c(c3)sc(=O)n4C(C)C)CC2)c1 has RP-LC retention time at least equal to 800 s.
condition met

hey, is RP-LC retention time for this one >= 800 s? O=C(NC1COc2ccccc2C1)N1CCOCC1 (centres undefined)
condition not met

Say whether CCn1c(SC)nnc1-c1nn(C)c2c1CN(C(=O)c1ccc(F)cc1)CC2 shows RP-LC retention time of 800 s or more.
condition not met

Reference for the values: the METLIN SMRT retention time set (Domingo-Almenara et al. 2019)
